- test.protocol: hydrolytic stability (t½) at 20° C.
- Type: physicochemical
- stated.conditions: buffer, pH 7
property.label: half-life (h)
I only need the number, in h, no unit after it.

Prompt: For the compound CC(=O)OC1C(O[C@@H]2OC(COC(=O)C3O[C@H](OC(C)=O)C(OC(C)=O)C(OC(C)=O)[C@@H]3OC(C)=O)[C@@H](OC(C)=O)C(OC(C)=O)C2OC(C)=O)OC(COC(=O)C2O[C@H](OC(C)=O)C(OC(C)=O)C(OC(C)=O)[C@H]2OC(C)=O)[C@@H](OC(C)=O)C1OC(C)=O (stereo partly shown) [Example 1] , what half-life is on record?
Completion: 14
